- PROTOCOL_DETAILS: soluble on expression in E. coli; label from the status in PepcDB or PDB records

SEQUENCE_DATA	soluble on expression in E. coli
MGSDKIHHHHHHMKTARLIYNPTSGREQIRKSLAYILERLELAGYETSTHATTGEGSATEAARLAGERRHDLVIAAGGDGTIYEVVNGLAGLEKRPTLGLIPAGTTNDFARALNIPRDIEKACDILIEGHTKPVDVGKAGDHYFINIAAGGTLTELTYEVPSKLKTVVGQLAYYIKGLEKLPQISPTDVRIEYDGKLFEGEIMMFLVSNTNSVGGFERLAPNASLRDGMFDFIIVKKTSFPEFLHLAGLALRGEHIKHPKVLYVQANRIKVQAEKSMQLNFDGEYGGLLPAEFVNLYQHFQMLCPKD	not soluble
NGFDVREGRKLLVGGGSGIVSLYPIADQETDALISAKTRDELIFKDRFPESRRFIATDDGSDGFHGFAHELLQRINIDSYEAIYVCGPEQMMYKVLQVLKGRKVFVQFS	not soluble
MATSFPVLCLPNKNIRDVLQNMSTCNLIAFSLCSKATKSHVMHLKNDIQQISIKAFLSIDINILSHNQEVTSLVFFKKDYGRWNFESCESVTATETLTPLEPESDRVWVKRGFKLRDWIDHVMEIFNCSRIHEIYISRIGHEEHYISLSNAVKELKTETIFFSFCSDTVVQSVVANVQSNDISFNLSFNIEPSMQKHKVLTRHFERVSFSKDDTREALTLNDLLITNVSQLNISAHHLSFEELNIFIRHLISGSNRRLKIVGIVCAEATRNMQILLKGISHSVYSAELKIVARNENDYQLGDTIYVYQNCGRRLAMQTYLFEGVEKIVMRVY	not soluble

====

- PROTOCOL_DETAILS: soluble on expression in E. coli; label from the status in PepcDB or PDB records
OUTCOME_MEASURE: soluble on expression in E. coli

SEQUENCE_DATA	soluble on expression in E. coli
MSLRRTRIRFEAWTAENAHRYHSLAHALPQLGARRPTGLLLDEAGRAAIPFLRTGQFIIGLGDPAGSERNCVAAIWRLRDLALQEGCKLAFIQVGQSLMAVYNDLGLTVCPDRTAGTVCCFSEDYRMLRAFLKGEERLARKREGHHHHHH	not soluble
VSDVPRDIEVVAVTPTSALISWDAPAVTIRYIRLTYGETGGNSPVQEITLPGSKSTYTISGLKPGTDYTVTLYSVTGRGDSPASSKPASINFRTEI	soluble
QLTPTFYRETCPNLFPIVFGVIFDASFTDPRIGASLMRLHFHDCFVQGCDGSVLLNNTDTIESEQDALPNINSIRGLDVVNDIKTAVENSCPDTVSCADILAIAAEIASVLGGGPGWPVPLGRRDSLTANRTLANQNLPAPFFNLTQLKASFAVQGLNTLDLVTLSGGHTFGRARCSTFINRLYNFSNTGNPDPTLNTTYLEVLRARCPQNATGDNLTNLDLSTPDQFDNRYYSNLLQLNGLLQSDQELFSTPGADTIPIVNSFSSNQNTFFSNFRVSMIKMGNIGVLTGDEGEIRLQCNFVNG	soluble
GPGSMPVEQLEEENKTLRTKVRVLEEELKHRNAECVRLRDELQLLSGVMRENDSQRQLIDTLREELEFSRKSHAEAVEALNVGEKQRRNEEHRQRMARVQLQLSTSGMDVKTGTSSQAGGAVLPVVTGGVVPTSSGVEIICKSSNISSLGFAPVQRPPDFAGSAYGQFYRGVANSADLVEEEDEVSRLMAMAKDGAMLDIKHAEVTDGEENELLERYKALKLWKPN	not soluble
MGKYDALVELLLEAVKEGANIHQEDCSIPVGISNRHIHLSQADVNTLFGEGYSLTRIKDLSQPGQYACKETLTICGPKGAIENVRILGPERRESQVEILRTDCFKLGLKAPVKLSGELQGTPGMTLVGPKGSVLLSQGVIVAQRHIHMSLEDAQRFGVRDGELVTIQINGLRGGTYANVAIRANNTSQLECHIDTDEANGMDLTPTSRITIIK	not soluble
MVEKPKDIKIAQESFPILVAENIYHCGYHSEKSYGAASYLIQHSQGNILVDSPRFTPPLVKRIEAMGGIKYMYLTHQDDVADHQKFAEHFQCQRILHTDEISAGTRNVEIQLTGLEPFPLQPDVLIIPVPGHTKGHTVLLYKNKFLFTGDHLAWSENRHQLTAFRDVCWYSWAEQIKSMRRLADYSFDWVLPGHGRRFHADVETMRQQMHKCIELMTDERQPLTFNSLEHHHHHH	soluble
MGSDKIHHHHHHMPNQAWSYQMLHLDLAWLNQLYSEFQEQGLDLHIPQHKPLIIKDEFLYDAFTEMNETLFDAQKLIFEKEQSLLHCLIHLLLPHFILEEIQKPQYLYKDFLNLIDVISSSEGFISLEELAQRVGLSRYAIIRLFKANVGLTPHAFQINLKINQAREQLKKGVPLAELAVNLGFSDQSHFHKAFKAHTGVTPRQFQLAAAQ	not soluble
GPGSMPRYYTPHEVRAHCFEDDAYVSINGKVLDITPLIQMYQGTRYASLLQPLILAAGTDMTHLLDKKTMDFKTCIDPETGFRTYAQPFGRFAHTPTVLPDSSIDLSYEVPWWQDERYVIGQLTRKTRKIRIVNTLNGHEHTLEVCSEETLREIVMTRYLSHNAHALSYTWRRLDSEPRDLDMDKTLDENGVLDESEEFESLGLNADYYIPALHLYYDDDLTEA	soluble

Please state, for each entry, its recorded soluble on expression in E. coli.
1. MSLELDAVSRSYKRWAPIYDFSFGKVSESPRRRTAAHVNARGGRVLEVGVGTGLSLPLYSHRVAVTGIDFSHEMLARAREKVEEMGLEPVKELRQMDARELDFPDETFDTVVAMFLVSVVPEPERVVSEMARVCRKGGEVVIVNHFARDKGPLAAVEKALARFENTLGWHSDFAIERVTADPRLEVVEQTPMSPGGLFTFLRFQRREGHHHHHH
2. MKRLSLREAWPYLKDLQQDPLAVLLEWGRAHPRLFLPLPRFPLALIFDPEGVEGALLAEGTTKATFQYRALSRLTGRGLLTDWGKSWKEARKALKDPFLPKSVRGYREAMEEEAWAFFGEWRGEERDLDHEMLALSLRLLGRALFGKPLSPSLAEHALKALDRIMAQTRSPLALLDLAAEARFRKDRGALYREAEALIVHPPLSHLPRERALSEAVTLLVAGHETVASALTWSFLLLSHRPDWQKRVAESEEAALAAFQEALRLYPPAWILTRRLERPLLLGEDRLPQGTTLVLSPYVTQRLYFPEGEAFQPERFLAERGTPSGRYFPFGLGQRLCLGRDFALLEGPIVLRAFFRRFRLDPLPFPRVLAQVTLRPEGGLPARPREGVRA
3. MICSLFVDKVNKETYLCAMKQEYISRIRSFNRYYTKILGILNKYYLGSELGLPEVRIIQDVYLHPDRSSKDISNELNMDKGLLSRLLKQLEQKEYIFRKSTEKDNRMGLVNLTEKGCEVYYRLNTAANQSIERIFSHLEDRQLQRLVHCMDSIYKIINSVETGLTVDNNEPIVIRPIEESDNASIASVLRASVEEHGAPKVGTFYDDPHTDRMFQTFNIKGAEYWIVESNGVILGGGGFYPTKGLPHGYAELSKFHFRPELRGRGIGKRLLQFIEQRAVSAGYVYMYIVSYHQFGNAVSMYEKYGYEHIDNALDQSGLYQDAPFHMVKAL
4. MAHHHHHHMLSASSSSSELETADDASVEHAALAYERVRREHALQRYLKAREAYEVACIARERRQLVVQSHNHTLRLLGQVVCDVKAVVDGTLKEGLSVRESTATAAEMLLASSCYKRAERGLVTLLAHEGRQHEVLRAATSPATETSRIPQVFSSGSRAEKPVASSPAKHMLRPLLLLCEWRLDYATLLCRQRLPLFSELARAQRVVSNSRESAREARGRMSAPTTPVVQRCQVQVAEARASLAKARAFQRSLKDRLHQLHQMLSRSAPVHAESGVFVDAGVAEEIQARLRQELAVGHVTLLRILCESLSGAFDERGRLTAL

1. soluble
2. soluble
3. not soluble
4. not soluble
